Tested on: 156681-154-R-J1 tumor spheroid viability
Assay: Anticancer human tumor 156681-154-R-J1 patient-derived melanoma cell line growth inhibition
Conditions: second compound 0.000949 µM; first compound 0.316 µM; active compounds read low; spheroids with HUVEC and MSC
# viability, T/C values compiled below

COMPOUND: Cc1cc(C)c(CNC(=O)c2cc(-c3ccc(CN4CCOCC4)cc3)cc3c2cnn3C2CCCC2)c(=O)[nH]1 + COc1cc2c(cc1O)CCNC21CSC2c3c(OC(C)=O)c(C)c4c(c3C(COC1=O)N1C(O)C3Cc5cc(C)c(OC)c(O)c5C(C21)N3C)OCO4
viability, T/C: 5.29%

COMPOUND: COc1cc(C)[nH]c(=O)c1CN1CCc2c(Cl)cc(C(OC)C3COC3)c(Cl)c2C1=O (stereo unspecified) + COc1cc2c(cc1O)CCNC21CSC2c3c(OC(C)=O)c(C)c4c(c3C(COC1=O)N1C(O)C3Cc5cc(C)c(OC)c(O)c5C(C21)N3C)OCO4
viability, T/C: 5.88%

COMPOUND: [2H]c1nc(C)nc([2H])c1-c1cc(NC[C@@H](C)c2cccc3c(C(=O)NC)ccnc23)ncn1 + COc1cc2c(cc1O)CCNC21CSC2c3c(OC(C)=O)c(C)c4c(c3C(COC1=O)N1C(O)C3Cc5cc(C)c(OC)c(O)c5C(C21)N3C)OCO4
viability, T/C: 4.24%

COMPOUND: CC1COCCN1c1cc(-c2ccnn2C)c2ccnc(-c3ccn[nH]3)c2n1 (stereo unspecified) + COc1cc2c(cc1O)CCNC21CSC2c3c(OC(C)=O)c(C)c4c(c3C(COC1=O)N1C(O)C3Cc5cc(C)c(OC)c(O)c5C(C21)N3C)OCO4
viability, T/C: 4.04%

COMPOUND: CC(C)n1c(=O)n(C)c2cnc3cc(F)c(-c4ccc(OCCCN5CCCCC5)nc4)cc3c21 + COc1cc2c(cc1O)CCNC21CSC2c3c(OC(C)=O)c(C)c4c(c3C(COC1=O)N1C(O)C3Cc5cc(C)c(OC)c(O)c5C(C21)N3C)OCO4
viability, T/C: 4.29%

Note: attention shifts to another entry.
Query (compound): COc1ccc([C@@H](O)c2cc(-c3ncnc4cc(N5CCOCC5)ccc34)c(F)cc2Cl)nn1 + COc1cc2c(cc1O)CCNC21CSC2c3c(OC(C)=O)c(C)c4c(c3C(COC1=O)N1C(O)C3Cc5cc(C)c(OC)c(O)c5C(C21)N3C)OCO4 ; field requested: viability, T/C
0.68%

----------
System: 156681-154-R-J1 tumor spheroid viability
Assay: Anticancer human tumor 156681-154-R-J1 cell line growth inhibition;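 also: spheroids exposed to compounds for 7 days before readout; percent of vehicle control viability where 100% = DMSO-treated spheroids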
Conditions: second compound 30 pM; first compound 10 µM; active compounds read low; spheroids with HUVEC and MSC
Catalogue of viability, T/C values
Response body: numeric value in %, unit text excluded.

Examples with answers:
COMPOUND: COc1ccc([C@@H](O)c2cc(-c3ncnc4cc(N5CCOCC5)ccc34)c(F)cc2Cl)nn1 + COc1cc2c(cc1O)CCNC21CSC2c3c(OC(C)=O)c(C)c4c(c3C(COC1=O)N1C(O)C3Cc5cc(C)c(OC)c(O)c5C(C21)N3C)OCO4
SYSTEM: 156681-154-R-J1 tumor spheroid viability
READOUT_UNIT: %
RECORDED_MEASUREMENT: 49.5
//
COMPOUND: Cc1cc(C)c(CNC(=O)c2cc(-c3ccc(CN4CCOCC4)cc3)cc3c2cnn3C2CCCC2)c(=O)[nH]1 + COc1cc2c(cc1O)CCNC21CSC2c3c(OC(C)=O)c(C)c4c(c3C(COC1=O)N1C(O)C3Cc5cc(C)c(OC)c(O)c5C(C21)N3C)OCO4
SYSTEM: 156681-154-R-J1 tumor spheroid viability
READOUT_UNIT: %
RECORDED_MEASUREMENT: 87.8
//
COMPOUND: CC1COCCN1c1cc(-c2ccnn2C)c2ccnc(-c3ccn[nH]3)c2n1 (stereo unspecified) + COc1cc2c(cc1O)CCNC21CSC2c3c(OC(C)=O)c(C)c4c(c3C(COC1=O)N1C(O)C3Cc5cc(C)c(OC)c(O)c5C(C21)N3C)OCO4
SYSTEM: 156681-154-R-J1 tumor spheroid viability
READOUT_UNIT: %
RECORDED_MEASUREMENT: 22.6
//
COMPOUND: COc1cc(C)[nH]c(=O)c1CN1CCc2c(Cl)cc(C(OC)C3COC3)c(Cl)c2C1=O (stereo unspecified) + COc1cc2c(cc1O)CCNC21CSC2c3c(OC(C)=O)c(C)c4c(c3C(COC1=O)N1C(O)C3Cc5cc(C)c(OC)c(O)c5C(C21)N3C)OCO4
SYSTEM: 156681-154-R-J1 tumor spheroid viability
READOUT_UNIT: %
RECORDED_MEASUREMENT: 120
//
COMPOUND: [2H]c1nc(C)nc([2H])c1-c1cc(NC[C@@H](C)c2cccc3c(C(=O)NC)ccnc23)ncn1 + COc1cc2c(cc1O)CCNC21CSC2c3c(OC(C)=O)c(C)c4c(c3C(COC1=O)N1C(O)C3Cc5cc(C)c(OC)c(O)c5C(C21)N3C)OCO4
SYSTEM: 156681-154-R-J1 tumor spheroid viability
READOUT_UNIT: %
RECORDED_MEASUREMENT: 94

API: the following record is the query input.
Would you mind telling me what viability, T/C value was observed for CC(C)n1c(=O)n(C)c2cnc3cc(F)c(-c4ccc(OCCCN5CCCCC5)nc4)cc3c21 + COc1cc2c(cc1O)CCNC21CSC2c3c(OC(C)=O)c(C)c4c(c3C(COC1=O)N1C(O)C3Cc5cc(C)c(OC)c(O)c5C(C21)N3C)OCO4 ?
90.3
